B1: CPEB3 Ribozyme (parent)
chain: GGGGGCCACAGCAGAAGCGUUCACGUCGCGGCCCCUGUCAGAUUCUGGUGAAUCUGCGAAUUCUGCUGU

Variants of: B1
Experimental protocol: self-cleavage, relative activity (ratio to wild type); higher = more cleavage; co-transcriptional
# key: entry, value: self-cleavage
Respond with the number and no other words.

C12G C32A
0.224
U38A A60C
0.418

For A13G U53C the variant record lists self-cleavage as 0.628

self-cleavage reported for this variant A8G A59G : 0.897

Short answer for A42G U69G : self-cleavage was 1.03
